# Assay method text: Ex-vivo mouse plasma stability study of ^177Lu-labeled compounds
# Assay type: in vitro ADME
# Protocol conditions: 37° C., 48 h
Please provide measured % Remaining 48 h for the entries that follow.

Report % Remaining 48 h for O=C(O)CC[C@H](NC(=O)N[C@@H](CCCCNC(=O)[C@H](Cc1ccc2ccccc2c1)NC(=O)[C@H]1CC[C@H](CNC(=O)[C@H](CCCCNC(=O)CCCOC(=O)CNC(=O)CN2CCN(CC(=O)O)CCN(CC(=O)O)CCN(CC(=O)O)CC2)NC(=O)[C@H](CCC(=O)O)NC(=O)CCCc2ccc(I)cc2)CC1)C(=O)O)C(=O)O [Example I-3, 4pIBA-Glu-Lys(-ESL1-DOTA)-Trx-2NaI-eKuE] 9.30%

Report % Remaining 48 h for O=C(O)CC[C@H](NC(=O)N[C@@H](CCCCNC(=O)[C@H](Cc1ccc2ccccc2c1)NC(=O)[C@H]1CC[C@H](CNC(=O)[C@H](CCCCNC(=O)CN2CCN(CC(=O)O)CCN(CC(=O)O)CCN(CC(=O)O)CC2)NC(=O)[C@H](CCC(=O)O)NC(=O)CCCc2ccc(I)cc2)CC1)C(=O)O)C(=O)O [Example C-2, 4pIBA-Glu-Lys(DOTA)-Trx-2NaI-eKuE, reference compound] 100%

---

Please provide measured T/K at 96 h (tumor uptake/kidney uptake) for the entries that follow.
# System: PC-3 PIP tumor-bearing mice
# Assay method text: Biodistribution study in SCID mice bearing PC3-PIP tumor
# Format: in vivo, mouse
# Protocol conditions: PC3 PIP tumor-bearing mice, 96 h

Report T/K at 96 h (tumor uptake/kidney uptake) for O=C(O)CC[C@H](NC(=O)N[C@@H](CCCCNC(=O)[C@H](Cc1ccc2ccccc2c1)NC(=O)[C@H]1CC[C@H](CNC(=O)COCCOCCNC(=O)[C@H](CCCCNC(=O)CCCOC(=O)CNC(=O)CN2CCN(CC(=O)O)CCN(CC(=O)O)CCN(CC(=O)O)CC2)NC(=O)[C@H](CCCCNC(=O)COCCOCCNC(=O)COCCOCCNC(=O)[C@H](CCC(=O)O)NC(=O)CCCc2ccc(I)cc2)NC(=O)COCCOCCNC(=O)COCCOCCNC(=O)[C@H](CCC(=O)O)NC(=O)CCCc2ccc(I)cc2)CC1)C(=O)O)C(=O)O 1.4

Report T/K at 96 h (tumor uptake/kidney uptake) for O=C(O)CC[C@H](NC(=O)N[C@@H](CCCCNC(=O)[C@H](Cc1ccc2ccccc2c1)NC(=O)[C@H]1CC[C@H](CNC(=O)[C@H](CCCCNC(=O)CN2CCN(CC(=O)O)CCN(CC(=O)O)CCN(CC(=O)O)CC2)NC(=O)[C@H](CCC(=O)O)NC(=O)CCCc2ccc(I)cc2)CC1)C(=O)O)C(=O)O [Example C-2, 4pIBA-Glu-Lys(DOTA)-Trx-2NaI-eKuE, reference compound] 3.7

Report T/K at 96 h (tumor uptake/kidney uptake) for O=C(O)CC[C@H](NC(=O)N[C@@H](CCCCNC(=O)[C@H](Cc1ccc2ccccc2c1)NC(=O)[C@H]1CC[C@H](CNC(=O)[C@H](CCCCNC(=O)CN2CCN(CC(=O)O)CCN(CC(=O)O)CCN(CC(=O)O)CC2)NC(=O)CCCOC(=O)CNC(=O)[C@H](CCC(=O)O)NC(=O)CCCc2ccc(I)cc2)CC1)C(=O)O)C(=O)O 10.1

Report T/K at 96 h (tumor uptake/kidney uptake) for O=C(O)CC[C@H](NC(=O)N[C@@H](CCCCNC(=O)[C@H](Cc1ccc2ccccc2c1)NC(=O)[C@H]1CC[C@H](CNC(=O)[C@H](CCCCNC(=O)CCC(=O)NCCSSCCNC(=O)CN2CCN(CC(=O)O)CCN(CC(=O)O)CCN(CC(=O)O)CC2)NC(=O)[C@H](CCC(=O)O)NC(=O)CCCc2ccc(I)cc2)CC1)C(=O)O)C(=O)O [Example I-4, 4pIBA-Glu-Lys(-SSL1-DOTA)-Trx-2NaI-eKuE] 1.2

Report T/K at 96 h (tumor uptake/kidney uptake) for O=C(O)CC[C@H](NC(=O)N[C@@H](CCCCNC(=O)[C@H](Cc1ccc2ccccc2c1)NC(=O)C1CCC(CNC(=O)CN2CCN(CC(=O)O)CCN(CC(=O)O)CCN(CC(=O)O)CC2)CC1)C(=O)O)C(=O)O (stereo partly drawn) [Example C-1, reference compound] 182

Report T/K at 96 h (tumor uptake/kidney uptake) for O=C(O)CC[C@H](NC(=O)N[C@@H](CCCCNC(=O)[C@H](Cc1ccc2ccccc2c1)NC(=O)[C@H]1CC[C@H](CNC(=O)[C@H](CCCCNC(=O)CCCOC(=O)CNC(=O)CN2CCN(CC(=O)O)CCN(CC(=O)O)CCN(CC(=O)O)CC2)NC(=O)[C@H](CCC(=O)O)NC(=O)CCCc2ccc(I)cc2)CC1)C(=O)O)C(=O)O [Example I-3, 4pIBA-Glu-Lys(-ESL1-DOTA)-Trx-2NaI-eKuE] 4.0

---

# Measured target: PSMA (Homo sapiens, UniProt Q04609)
# Construct: host or cells: LNCaP cells
# Sequence (Q04609 whole entry): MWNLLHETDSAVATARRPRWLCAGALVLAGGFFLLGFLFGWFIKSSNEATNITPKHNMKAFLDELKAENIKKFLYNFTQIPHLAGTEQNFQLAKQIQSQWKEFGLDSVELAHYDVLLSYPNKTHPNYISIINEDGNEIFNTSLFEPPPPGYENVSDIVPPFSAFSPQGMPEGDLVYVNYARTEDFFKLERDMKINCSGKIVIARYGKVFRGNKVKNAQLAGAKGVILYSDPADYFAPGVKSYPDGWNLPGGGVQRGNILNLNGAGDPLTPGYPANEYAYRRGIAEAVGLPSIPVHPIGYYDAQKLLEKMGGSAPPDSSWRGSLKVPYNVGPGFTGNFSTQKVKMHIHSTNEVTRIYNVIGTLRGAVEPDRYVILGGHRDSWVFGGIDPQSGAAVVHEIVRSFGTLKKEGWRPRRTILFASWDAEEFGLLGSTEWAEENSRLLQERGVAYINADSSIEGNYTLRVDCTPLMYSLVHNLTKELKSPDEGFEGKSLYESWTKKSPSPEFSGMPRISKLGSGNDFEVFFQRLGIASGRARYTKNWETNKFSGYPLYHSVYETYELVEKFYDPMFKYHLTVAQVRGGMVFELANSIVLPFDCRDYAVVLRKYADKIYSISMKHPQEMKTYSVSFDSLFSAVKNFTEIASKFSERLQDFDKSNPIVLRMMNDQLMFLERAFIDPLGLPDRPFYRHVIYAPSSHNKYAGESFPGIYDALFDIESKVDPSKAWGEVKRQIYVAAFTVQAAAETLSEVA
# Assay method text: Cell-based radioligand competitive binding assay (^125I-C-8, LNCaP cells)
# Protocol conditions: based on the mean value of the IC50 number; C-1 = 1.00
Experimental endpoint: Relative Binding Affinity
Just the number.

Report Relative Binding Affinity for O=C(O)CC[C@H](NC(=O)N[C@@H](CCCCNC(=O)[C@H](Cc1ccc2ccccc2c1)NC(=O)[C@H]1CC[C@H](CNC(=O)[C@H](CCCCNC(=O)CCCOC(=O)CNC(=O)CN2CCN(CC(=O)O)CCN(CC(=O)O)CCN(CC(=O)O)CC2)NC(=O)[C@H](CCC(=O)O)NC(=O)CCCc2ccc(I)cc2)CC1)C(=O)O)C(=O)O [Example I-3, 4pIBA-Glu-Lys(-ESL1-DOTA)-Trx-2NaI-eKuE] 1.30

Report Relative Binding Affinity for O=C(O)CC[C@H](NC(=O)N[C@@H](CCCCNC(=O)[C@H](Cc1ccc2ccccc2c1)NC(=O)[C@H]1CC[C@H](CNC(=O)[C@H](CCCCNC(=O)CN2CCN(CC(=O)O)CCN(CC(=O)O)CCN(CC(=O)O)CC2)NC(=O)[C@H](CCC(=O)O)NC(=O)CCCc2ccc(I)cc2)CC1)C(=O)O)C(=O)O [Example C-2, 4pIBA-Glu-Lys(DOTA)-Trx-2NaI-eKuE, reference compound] 1.78

Report Relative Binding Affinity for O=C(O)CC[C@H](NC(=O)N[C@@H](CCCCNC(=O)[C@H](Cc1ccc2ccccc2c1)NC(=O)[C@H]1CC[C@H](CNC(=O)[C@H](CCCCNC(=O)CN2CCN(CC(=O)O)CCN(CC(=O)O)CCN(CC(=O)O)CC2)NC(=O)CCCOC(=O)CNC(=O)[C@H](CCC(=O)O)NC(=O)CCCc2ccc(I)cc2)CC1)C(=O)O)C(=O)O 1.59

Report Relative Binding Affinity for O=C(O)CC[C@H](NC(=O)N[C@@H](CCCCNC(=O)[C@H](Cc1ccc2ccccc2c1)NC(=O)[C@H]1CC[C@H](CNC(=O)COCCOCCNC(=O)[C@H](CCCCNC(=O)CCCOC(=O)CNC(=O)CN2CCN(CC(=O)O)CCN(CC(=O)O)CCN(CC(=O)O)CC2)NC(=O)[C@H](CCCCNC(=O)COCCOCCNC(=O)COCCOCCNC(=O)[C@H](CCC(=O)O)NC(=O)CCCc2ccc(I)cc2)NC(=O)COCCOCCNC(=O)COCCOCCNC(=O)[C@H](CCC(=O)O)NC(=O)CCCc2ccc(I)cc2)CC1)C(=O)O)C(=O)O 0.56

---

# Assay method text: Ex-vivo mouse plasma stability study of ^177Lu-labeled compounds
# Format: in vitro ADME
# Protocol conditions: 37° C., * = value obtained using nonlinear regression

Compound | T½ (h)
O=C(O)CC[C@H](NC(=O)N[C@@H](CCCCNC(=O)[C@H](Cc1ccc2ccccc2c1)NC(=O)[C@H]1CC[C@H](CNC(=O)[C@H](CCCCNC(=O)CCCOC(=O)CNC(=O)CN2CCN(CC(=O)O)CCN(CC(=O)O)CCN(CC(=O)O)CC2)NC(=O)[C@H](CCC(=O)O)NC(=O)CCCc2ccc(I)cc2)CC1)C(=O)O)C(=O)O [Example I-3, 4pIBA-Glu-Lys(-ESL1-DOTA)-Trx-2NaI-eKuE] | 4.9* h
O=C(O)CCCCCCCCCCCCCCCCC(=O)N[C@@H](CCC(=O)NCCOCCOCC(=O)NCCOCCOCC(=O)N[C@@H](CCCCNC(=O)CCCOC(=O)CNC(=O)CNC(=O)CNC(=O)CNC(=O)CN1CCN(CC(=O)O)CCN(CC(=O)O)CCN(CC(=O)O)CC1)C(=O)NCCOCCOCC(=O)NC[C@H]1CC[C@H](C(=O)N[C@@H](Cc2ccc3ccccc3c2)C(=O)NCCCC[C@H](NC(=O)N[C@@H](CCC(=O)O)C(=O)O)C(=O)O)CC1)C(=O)O [Example I-46] | 102* h
O=C(O)CC[C@H](NC(=O)N[C@@H](CCCCNC(=O)[C@H](Cc1ccc2ccccc2c1)NC(=O)[C@H]1CC[C@H](CNC(=O)[C@H](CCCCNC(=O)CN2CCN(CC(=O)O)CCN(CC(=O)O)CCN(CC(=O)O)CC2)NC(=O)[C@H](CCC(=O)O)NC(=O)CCCc2ccc(I)cc2)CC1)C(=O)O)C(=O)O [Example C-2, 4pIBA-Glu-Lys(DOTA)-Trx-2NaI-eKuE, reference compound] | Stable
O=C(O)CC[C@H](NC(=O)N[C@@H](CCCCNC(=O)[C@H](Cc1ccc2ccccc2c1)NC(=O)C1CCC(CNC(=O)CN2CCN(CC(=O)O)CCN(CC(=O)O)CCN(CC(=O)O)CC2)CC1)C(=O)O)C(=O)O (stereo partly shown) [Example C-1, reference compound] | Stable
